Test system: histamine release from human leukocytes (basophils)
Test: Human basophil assay: inhibition of anti-IgE-induced (IgE-mediated) histamine release
Assay type: cell-based
Conditions: Homo sapiens, Leukocyte; anti-IgE; range of concentrations up to the limits of its solubility; read-out: IC50 (histamine release)
Method: In the experiments reported by this example compounds in accordance with the invention are evaluated to determine their ability to inhibit the IgE-mediated release of histamine from sensitized peripheral leucocytes (basophils). Separation of leukocytes is accomplished by a modification of the method of L. Lichtenstein and A. Osler, J. Exp. Med. 120: 507 (1964). […] Percent inhibition is calculated as follows: [formula] […]
VALUE KIND: pIC50
Give bare numbers, as −log10 of the molar value.

Lookup: Record request: pIC50 value, item Clc1ccc(CN2CCN(CCSSCCN3CCN(Cc4ccc(Cl)cc4)CC3)CC2)cc1
Found: 5.43
